# PROTOCOL: Induction of superoxide anion generation irradiated with 560 nm LED light
# Type: functional
Activity calls are given as the source filed them. The calls are words filed in the database; no cut-off is given here.

- STRUCTURE_SMILES_STRING: "CC(C)OC(=O)c1ccc2n1CCCc1cnc(NC3CCCCC3)nc1-2"
  Activity: "Active"
- STRUCTURE_SMILES_STRING: "CCOC(=O)c1ccc2n1CCc1cnc(NC3CCCCC3)nc1-2"
  Activity: "Active"
- STRUCTURE_SMILES_STRING: "CC(C)OC(=O)c1ccc2n1CCc1cnc(NC3CCCCC3)nc1-2"
  Activity: "Active"
- STRUCTURE_SMILES_STRING: "CCOC(=O)c1ccc2n1CCCc1cnc(NC3CCCCC3)nc1-2"
  Activity: "Active"

* * *

selectivity ratio: recorded values
# PROTOCOL: Selectivity index, ratio of IC50 for dark toxicity against human MDA-MB-231 cells to IC50 for phototoxicity against human MDA-MB-231 cells irradiated with 2 J/cm^2 of light dose
# Format: cell-based
# CONDITION_NOTES: read-out: Ratio IC50

- STRUCTURE_SMILES_STRING: "CCOC(=O)c1ccc2n1CCCc1cnc(NC3CCCC3)nc1-2"
  selectivity ratio: 1.5
- STRUCTURE_SMILES_STRING: "c1cc2n(c1)CCc1cnc(NC3CCCC3)nc1-2"
  selectivity ratio: 1.1
- STRUCTURE_SMILES_STRING: "CC(C)OC(=O)c1ccc2n1CCc1cnc(NC3CCCCC3)nc1-2"
  selectivity ratio: "> 4"
- STRUCTURE_SMILES_STRING: "CC(C)OC(=O)c1ccc2n1CCCc1cnc(N)nc1-2"
  selectivity ratio: 1
- STRUCTURE_SMILES_STRING: "CC(=O)Nc1ncc2c(n1)-c1ccc(C(=O)OC(C)C)n1CCC2"
  selectivity ratio: "> 2.9"
- STRUCTURE_SMILES_STRING: "CC(=O)Nc1ncc2c(n1)-c1cccn1CC2"
  selectivity ratio: "> 3.4"
- STRUCTURE_SMILES_STRING: "CC(C)OC(=O)c1ccc2n1CCCc1cnc(NC3CCCC3)nc1-2"
  selectivity ratio: "> 8.7"
- STRUCTURE_SMILES_STRING: "CCOC(=O)c1ccc2n1CCc1cnc(NC(C)=O)nc1-2"
  selectivity ratio: "> 7"

* * *

# Test system: DNA
# PROTOCOL: Induction of DNA damage in Escherichia coli pBR322 DNA assessed as supercoiled DNA irradiated with 15 J/cm^2 UV light dose relative to control
# Format: nucleic-acid assay

- STRUCTURE_SMILES_STRING: "CCOC(=O)c1ccc2n1CCc1cnc(NC3CCCCC3)nc1-2"
  SYSTEM_NAME: "DNA"
  Activity (%): 83.5
- STRUCTURE_SMILES_STRING: "CCOC(=O)c1ccc2n1CCCc1cnc(NC3CCCCC3)nc1-2"
  SYSTEM_NAME: "DNA"
  Activity (%): 74.7
- STRUCTURE_SMILES_STRING: "CC(C)OC(=O)c1ccc2n1CCCc1cnc(NC3CCCCC3)nc1-2"
  SYSTEM_NAME: "DNA"
  Activity (%): 50.1
- STRUCTURE_SMILES_STRING: "CC(C)OC(=O)c1ccc2n1CCc1cnc(NC3CCCCC3)nc1-2"
  SYSTEM_NAME: "DNA"
  Activity (%): 36.6
